- assayTarget: HDAC1 enzyme (Homo sapiens, UniProt Q13547)
- Construct: prepared by transducing full length HDAC1 and HDAC6 genes into Sf-9 insect cells; GST; purchased SignalChem; host or cells: Sf-9 insect cells
- Sequence (Q13547 whole entry): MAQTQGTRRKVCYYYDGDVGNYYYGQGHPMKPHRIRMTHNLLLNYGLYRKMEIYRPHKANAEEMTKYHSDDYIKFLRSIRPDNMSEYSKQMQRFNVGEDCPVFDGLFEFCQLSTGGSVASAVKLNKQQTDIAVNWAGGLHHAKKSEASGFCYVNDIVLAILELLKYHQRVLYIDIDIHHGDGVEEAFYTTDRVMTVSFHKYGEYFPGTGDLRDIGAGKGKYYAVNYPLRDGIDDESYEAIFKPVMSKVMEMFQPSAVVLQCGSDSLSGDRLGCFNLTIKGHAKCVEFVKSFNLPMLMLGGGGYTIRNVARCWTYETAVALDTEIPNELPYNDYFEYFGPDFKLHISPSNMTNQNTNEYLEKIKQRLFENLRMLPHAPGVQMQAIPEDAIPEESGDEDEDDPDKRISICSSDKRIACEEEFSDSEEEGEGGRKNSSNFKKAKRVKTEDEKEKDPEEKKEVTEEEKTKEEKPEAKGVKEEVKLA
- assayComment: HDAC1 enzyme inhibitory assay (HDAC-Glo I/II Assay kit)
- Type: biochemical
- statedConditions: 1 μM test compound; read-out: HDAC1 inhibitory rate (%) (1 μM)
observationType: inhibition at 1 µM (%)

O=C(NCC1COCCN1C(=O)C1CCNC1=O)c1ccc(-c2noc(C(F)(F)F)n2)cc1 (stereo in doubt) [Example 104]
9
Cc1ccsc1C(=O)N1CCOC[C@@H]1CNC(=O)c1ccc(-c2noc(C(F)(F)F)n2)cc1 [Example 74]
18
O=C(NC[C@H]1COCCN1C(=O)N1CCCCC1CO)c1ccc(-c2noc(C(F)(F)F)n2)cc1 (some centres unmarked) [Example 303]
8
O=C(NC[C@H]1COCCN1C(=O)c1cccc(OCCO)c1)c1ccc(-c2noc(C(F)(F)F)n2)cc1 [Example 302]
10
Cc1ccc(C(=O)N2CCOC[C@H]2CNC(=O)c2ccc(-c3noc(C(F)(F)F)n3)cc2)s1 [Example 144]
14
O=C(NC[C@H]1COCCN1C(=O)N1CCCC2(COC2)C1)c1ccc(-c2noc(C(F)(F)F)n2)cc1 [Example 281]
7
O=C(NC[C@@H]1COCCN1C(=O)C1CCOCC1)c1ccc(-c2noc(C(F)(F)F)n2)cc1 [Example 153]
3
O=C(NCC1Cc2ccccc2CN1C(=O)c1ccccc1)c1ccc(-c2noc(C(F)(F)F)n2)cc1 (centres unmarked) [Example 175]
18
Cc1nnsc1C(=O)N1CCOC[C@@H]1CNC(=O)c1ccc(-c2noc(C(F)(F)F)n2)cn1 [Example 195]
40
O=C(NCC1COCCN1C(=O)c1ccncc1)c1ccc(-c2noc(C(F)(F)F)n2)cc1 (centres unmarked) [Example 14]
20

(1) O=C(NC[C@H]1COCCN1C(=O)c1ccc(OCC(F)(F)F)nc1)c1ccc(-c2noc(C(F)(F)F)n2)cc1 [Example 51]
(2) O=C(NCC1COCCN1C(=O)N1CCCC1)c1ccc(-c2noc(C(F)(F)F)n2)cc1 (stereo in doubt) [Example 100]
Pick the one with the larger inhibition at 1 µM: 1 vs 2 Mark your selection by writing its label.
1
(1: 15%, 2: 6%)

###

- assayTarget: HDAC6 enzyme (Homo sapiens, UniProt Q9UBN7)
- Construct: prepared by transducing full length HDAC1 and HDAC6 genes into Sf-9 insect cells; GST; purchased SignalChem; host or cells: Sf-9 insect cells
- assayComment: HDAC6 enzyme inhibitory assay (HDAC-Glo I/II Assay kit)
- Format: biochemical
- statedConditions: 1 μM test compound; read-out: HDAC6 inhibitory rate (%) (1 μM)
observationType: inhibition at 1 µM (%)

CCn1nccc1C(=O)N1CCOCC1CNC(=O)c1ccc(-c2noc(C(F)(F)F)n2)cc1 (stereo in doubt)
98
N#Cc1cc(Cl)cc(C(=O)N2CCOC[C@@H]2CNC(=O)c2ccc(-c3noc(C(F)(F)F)n3)cc2)c1
98
O=C(NC[C@H]1COCCN1C(=O)C(F)(F)c1ccccc1)c1ccc(-c2noc(C(F)(F)F)n2)cn1
99

(a) Cc1nonc1C(=O)N1CCOC[C@H]1CNC(=O)c1ccc(-c2noc(C(F)(F)F)n2)s1
(b) Cn1cnc(C(=O)N2CCOCC2CNC(=O)c2ccc(-c3noc(C(F)(F)F)n3)cc2)c1 (stereo not shown)
For the pair a and b , which member has the lower inhibition at 1 µM number? Mark your selection by writing its label.
b
(b: 61%, a: 99%)

###

- assayTarget: HDAC1 enzyme (Homo sapiens, UniProt Q13547)
- Construct: prepared by transducing full length HDAC1 and HDAC6 genes into Sf-9 insect cells; GST; purchased SignalChem; host or cells: Sf-9 insect cells
- assayComment: HDAC1 enzyme inhibitory assay (HDAC-Glo I/II Assay kit)
- Format: biochemical
- statedConditions: 1 μM test compound; read-out: HDAC1 inhibitory rate (%) (1 μM)
observationType: inhibition at 1 µM (%)

Take a look at these entries with their results.
O=C(NC[C@@H]1COCCN1C(=O)N1CCCCC1)c1ccc(-c2noc(C(F)(F)F)n2)cc1
12
CC(C)n1nccc1C(=O)N1CCOC[C@@H]1CNC(=O)c1ccc(-c2noc(C(F)(F)F)n2)cc1
53
Cc1oncc1C(=O)N1CCOC[C@@H]1CNC(=O)c1ccc(-c2noc(C(F)(F)F)n2)cn1
33

(a) Cn1nc2c(c1C(=O)N1CCOCC1CNC(=O)c1ccc(-c3noc(C(F)(F)F)n3)cc1)CCCC2 (stereo in doubt)
(b) O=C(NC[C@H]1COCCN1C(=O)Cn1cnccc1=O)c1ccc(-c2noc(C(F)(F)F)n2)cc1
For the pair a and b , which member has the lower inhibition at 1 µM number? Mark your selection by writing its label.
b
(b: 4%, a: 21%)

(A) Cc1cc(C#N)ccc1C(=O)N1CCOC[C@@H]1CNC(=O)c1ccc(-c2noc(C(F)(F)F)n2)cc1
(B) O=C(NC[C@H]1COCCN1C(=O)C1(c2ccccc2)CC1)c1ccc(-c2noc(C(F)(F)F)n2)cn1
(C) O=C(NC[C@H]1COCCN1C(=O)N1CCC(CO)C1)c1ccc(-c2noc(C(F)(F)F)n2)cc1 (some centres unmarked)
Please put the entries in order of rising inhibition at 1 µM. Answer format: list of labels, ordered as asked.
C, B, A

###

- assayTarget: HDAC6 enzyme (Homo sapiens)
- Construct: prepared by transducing full length HDAC1 and HDAC6 genes into Sf-9 insect cells; GST; purchased SignalChem; host or cells: Sf-9 insect cells
- Sequence (Q9UBN7 1-1215): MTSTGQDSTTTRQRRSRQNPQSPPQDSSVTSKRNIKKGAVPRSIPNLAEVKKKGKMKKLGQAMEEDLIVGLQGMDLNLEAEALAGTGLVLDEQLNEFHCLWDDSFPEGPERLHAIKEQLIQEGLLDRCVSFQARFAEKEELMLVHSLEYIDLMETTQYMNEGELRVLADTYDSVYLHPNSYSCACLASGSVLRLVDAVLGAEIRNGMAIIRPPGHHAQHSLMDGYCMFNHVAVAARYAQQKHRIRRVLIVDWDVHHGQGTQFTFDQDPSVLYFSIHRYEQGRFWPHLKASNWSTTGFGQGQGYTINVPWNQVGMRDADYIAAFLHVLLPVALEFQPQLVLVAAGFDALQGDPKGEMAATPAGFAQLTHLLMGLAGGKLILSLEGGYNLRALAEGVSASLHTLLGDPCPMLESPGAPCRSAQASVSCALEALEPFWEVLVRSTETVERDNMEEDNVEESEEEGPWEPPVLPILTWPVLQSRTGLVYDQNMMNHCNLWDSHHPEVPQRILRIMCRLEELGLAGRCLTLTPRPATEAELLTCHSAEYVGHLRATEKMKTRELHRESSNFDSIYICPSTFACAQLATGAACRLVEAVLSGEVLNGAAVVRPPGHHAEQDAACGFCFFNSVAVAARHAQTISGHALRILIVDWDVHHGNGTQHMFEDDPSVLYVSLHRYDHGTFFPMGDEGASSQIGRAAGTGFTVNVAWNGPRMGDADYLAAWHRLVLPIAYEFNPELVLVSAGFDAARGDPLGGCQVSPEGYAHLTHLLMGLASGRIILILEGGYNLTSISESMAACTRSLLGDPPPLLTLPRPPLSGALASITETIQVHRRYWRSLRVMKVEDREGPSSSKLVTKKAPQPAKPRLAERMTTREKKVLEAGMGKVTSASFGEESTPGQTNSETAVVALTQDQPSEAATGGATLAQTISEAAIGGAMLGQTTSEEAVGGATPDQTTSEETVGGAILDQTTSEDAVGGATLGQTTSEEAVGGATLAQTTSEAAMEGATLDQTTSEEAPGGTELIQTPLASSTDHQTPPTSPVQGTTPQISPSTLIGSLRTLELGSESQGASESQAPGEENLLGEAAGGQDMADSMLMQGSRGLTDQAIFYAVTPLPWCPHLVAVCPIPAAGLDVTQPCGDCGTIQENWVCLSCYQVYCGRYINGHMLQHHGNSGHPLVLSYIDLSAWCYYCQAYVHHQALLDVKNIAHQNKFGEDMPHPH
- assayComment: HDAC6 enzyme inhibitory assay (HDAC-Glo I/II Assay kit)
- Format: biochemical
- statedConditions: 1 μM test compound; read-out: HDAC6 inhibitory rate (%) (1 μM)
observationType: inhibition at 1 µM (%)

Cc1oncc1C(=O)N1CCOCC1CNC(=O)c1ccc(-c2noc(C(F)(F)F)n2)s1 (stereo not drawn) [Example 235]
99
O=C(NCC1COCCN1C(=O)c1cccc(-c2ccccc2)c1)c1ccc(-c2noc(C(F)(F)F)n2)cc1 (stereo not drawn) [Example 31]
96
Cc1csc(C(=O)N2CCOCC2CNC(=O)c2ccc(-c3noc(C(F)(F)F)n3)s2)c1 (stereo not drawn) [Example 243]
93
O=C(NCC1COCCN1C(=O)c1ccccn1)c1ccc(-c2noc(C(F)(F)F)n2)cc1 (stereo not drawn) [Example 12]
98
O=C(NC[C@@H]1COCCN1C(=O)c1cc(F)cc(F)c1)c1ccc(-c2noc(C(F)(F)F)n2)cc1 [Example 155]
99
O=C(NCC1COCCN1C(=O)c1cccc2c1OCC2)c1ccc(-c2noc(C(F)(F)F)n2)s1 (stereo not drawn) [Example 252]
91
O=C(NCC1COCCN1C(=O)c1cccc(Cl)c1)c1ccc(-c2noc(C(F)(F)F)n2)cc1 (stereo not drawn) [Example 7]
101
Cc1oc2ccccc2c1C(=O)N1CCOC[C@@H]1CNC(=O)c1ccc(-c2noc(C(F)(F)F)n2)cc1 [Example 308]
100
O=C(NC[C@H]1COCCN1C(=O)N1CCC[C@@H]1C(F)(F)F)c1ccc(-c2noc(C(F)(F)F)n2)cc1 [Example 286]
95
O=C(NCC1COCCN1C(=O)Nc1ccccc1)c1ccc(-c2noc(C(F)(F)F)n2)cc1 (stereo not drawn) [Example 2]
86
Cc1cc(C(=O)N2CCOC[C@@H]2CNC(=O)c2ccc(-c3noc(C(F)(F)F)n3)cc2)n(C)n1 [Example 63]
97
Cn1nc2ccccc2c1C(=O)N1CCOCC1CNC(=O)c1ccc(-c2noc(C(F)(F)F)n2)s1 (stereo not drawn) [Example 251]
96
Cn1ccnc1C(=O)N1CCOCC1CNC(=O)c1ccc(-c2noc(C(F)(F)F)n2)cc1 (stereo not drawn) [Example 16]
93
Cn1cc2c(C(=O)N3CCOC[C@@H]3CNC(=O)c3ccc(-c4noc(C(F)(F)F)n4)cc3)cccc2n1 [Example 85]
96
NC(=O)[C@@H]1CCCN1C(=O)N1CCOC[C@@H]1CNC(=O)c1ccc(-c2noc(C(F)(F)F)n2)cc1 [Example 283]
73
O=C(NC[C@H]1COCCN1C(=O)C1(c2ccccc2)CC1)c1ccc(-c2noc(C(F)(F)F)n2)cn1 [Example 202]
98
Cc1cc(C#N)ccc1C(=O)N1CCOC[C@@H]1CNC(=O)c1ccc(-c2noc(C(F)(F)F)n2)cc1 [Example 87]
98
O=C(NCC1COCCN1C(=O)c1ccc(-c2ccccc2)cc1)c1ccc(-c2noc(C(F)(F)F)n2)cc1 (stereo not drawn) [Example 23]
95
O=C(NC[C@H]1COCCN1C(=O)c1cccs1)c1ccc(-c2noc(C(F)(F)F)n2)cn1 [Example 197]
97
CC(C)(C(=O)N1CCOCC1CNC(=O)c1ccc(-c2noc(C(F)(F)F)n2)s1)c1ccccc1 (stereo not drawn) [Example 247]
98
Cc1oncc1C(=O)N1CCOC[C@@H]1CNC(=O)c1ccc(-c2noc(C(F)(F)F)n2)cc1 [Example 59]
101
COc1cccc(C(=O)N2CCOCC2CNC(=O)c2ccc(-c3noc(C(F)(F)F)n3)cc2)c1 (stereo in doubt) [Example 114]
92
O=C(NC[C@H]1COCCN1C(=O)N1CCC2(CC1)COC2)c1ccc(-c2noc(C(F)(F)F)n2)cc1 [Example 282]
83
O=C(NCC1Cc2ccccc2CN1C(=O)c1ccccc1)c1ccc(-c2noc(C(F)(F)F)n2)cc1 (stereo not drawn) [Example 175]
97
O=C(NC[C@@H]1COCCN1C(=O)N1CCCCC1)c1ccc(-c2noc(C(F)(F)F)n2)cc1 [Example 158]
97
Cc1oncc1C(=O)N1CCOC[C@H]1CNC(=O)c1ccc(-c2noc(C(F)(F)F)n2)cc1 [Example 131]
87
O=C(NCC1Cc2ccccc2N1C(=O)C1CC1)c1ccc(-c2noc(C(F)(F)F)n2)cc1 (stereo not drawn) [Example 166]
98
